Answer each item with its documented growth.
System: CAKI-1 renal
Assay: NCI-60 one-dose screen, 48 h (100 = growth as untreated, 0 = no growth, -100 = all killed)
Conditions: 10 µM unless noted
Compounds without any hit were thinned out: in the full panel of roughly 83,000, 20% have a hit. Active and inactive are the calls of the source. Rule for the calls: active = growth percent below 10; inactive = the rest.

These recorded examples may help you get a feel for the data.
molecule: O=C1C(Cl)=C(Nc2ccc(Nc3ccccc3)c(NC3=C(Cl)C(=O)c4ccccc4C3=O)c2)C(=O)c2ccccc21
measurement: 45.3% (inactive)

molecule: O=C(NC(=S)NNC(=S)NNc1ccccc1)c1ccccc1
measurement: 55.9% (inactive)

molecule: CC[n+]1c(C)ccc2cc(C)ccc21
measurement: 113% (inactive)

molecule: Nc1ncn([C@@H]2O[C@H](CO)[C@@H](O)C2(F)F)c(=O)n1
measurement: 27.9% (inactive)

molecule: Cc1c([C@H](C(Cl)Cl)[C@H](O)[C@H]2C[C@H](C)C(=O)O2)ccc2c1C(=O)[C@H]1[C@H]2C[C@@H](Br)[C@@]23O[C@@H](CO[C@H]2O)CC13C (stereo not given in full)
measurement: -31.4% (active)

Batch of 2 molecules: report growth for each.
1. N=C(N)c1ccc(-c2ccc(-c3ccc(F)cc3)s2)cc1
2. CSCc1ncc(-c2ccc(C(F)(F)F)cc2)c(NC2CCCCCC2)n1

["-95.1% (active)", "25.1% [25 µM] (inactive)"]

// each listed molecule needs a value for growth
1. COc1cc(/C(=C2/O[C@@H]([C@H]3COC(C)(C)O3)[C@H]3OC(C)(C)O[C@@H]23)c2ccc3c(c2)OCO3)cc(OC)c1OC
2. CCCCCCCCCC[N+](C)(C)C
3. C#CCCCCCCC[C@@H]1OC(=O)[C@H]([C@@H](C)CC)NC(=O)[C@H]([C@@H](C)CC)NC(=O)CC(=O)[C@@H]1C
4. O=C(/C=C/c1ccc(Br)cc1)c1ccccc1

68.6% (inactive)
58.4% (inactive)
71.4% (inactive)
101% (inactive)

Below is a list of molecules. For each, state its recorded growth.
1. Cc1nc(NC(=S)Nc2ccc(F)cc2)sc1C(=O)NNC(=S)Nc1ccc(F)cc1
2. O=C1c2ccccc2CCc2ccccc21
3. CCOC(=O)C1=C(c2ccccc2)NC(=O)NC1CN1C(=O)c2ccccc2C1=O (stereo not given)
4. COC(=O)/C=C1/CCCCC1(C)C(=O)OC (stereo not given)

101% (inactive)
90.5% (inactive)
105% (inactive)
107% (inactive)

// each molecule listed below needs its growth
1. COc1ccc2c(c1)/C(=C/c1c(-c3cc(OC)c(OC)c(OC)c3)nc3sccn13)C(=O)N2
2. Nc1cc(N)c2nc(-c3ccccc3)c(NCCc3ccc(Cl)c(Cl)c3)nc2c1
3. COc1ccc2c(c1)cn1c3ccc(O)cc3[nH]c(=O)c21
4. COC(=O)c1ccc2[nH]c(O)c(C(=Nc3ccc(N(C)C(=O)CN4CCN(C)CC4)cc3)c3ccc(CCO)cc3)c2c1

1: 67.3% (inactive); 2: -92.4% (active); 3: 22.2% (inactive); 4: 33.1% (inactive)

Need growth of O=C1NCCN1/N=C/c1c(Cl)nc2n1CCS2 , thanks.
98.7% (inactive)

###

Tested on: MCF7 breast
Test: NCI-60 one-dose screen, 48 h
Conditions: 10 µM unless noted
This is part of a sample that, as a whole, favours compounds with a hit. Of some 83,000 tested, about 20% had one in any assay. The source made the active and inactive calls. The calls were made as follows: active = growth percent below 10; inactive = the rest.
Answer with one of the outcomes given here: True (active), False (inactive)

molecule: CCCCCCCCC(=O)Nc1ccc(O)cc1
group.label: False
//
molecule: CC(=O)OCC1O[C@@H](OC(C)=O)[C@@H](NC(=O)NS(=O)(=O)c2ccccc2)C(OC(C)=O)[C@@H]1OC(C)=O (stereo partly specified)
group.label: False
//
molecule: CC(C)C(=O)c1ccc(Cl)s1
group.label: False
//
molecule: COC(=O)C1CC(=O)N(C(=O)Nc2ccc(Cl)cc2Cl)C1 (stereo unspecified)
group.label: False

Returns: the outcome recorded for CCOC(=O)c1c(C)oc2ncnc(Nc3ccc(NC(=O)Nc4ccc(CC)cc4)cc3)c12 in this assay.
False

Also CC1(C)N=C(N)N=C(N)N1c1cccc(CCCCOc2ccccc2)c1 ?
True
